# PROTOCOL_SUMMARY: Chemical stability of the compound under 92.5% humidity by measuring compound purity incubated for 10 days by HPLC-PDA method relative to initial purity
# Type: physicochemical
# CONDITION_LABEL: 240 h; time 10 day
Consider the following compounds and their measured Stability readings.

MOL	Stability / %
O=C(O)CC(O)(CC(=O)O)C(=O)O.O=c1cc(N2CCN(CC3CCCCC3)CC2)sc2c([N+](=O)[O-])cc(C(F)(F)F)cc12	99.4
O=c1cc(N2CCN(CC3CCCCC3)CC2)sc2c([N+](=O)[O-])cc(C(F)(F)F)cc12	100
Cl.O=c1cc(N2CCN(CC3CCCCC3)CC2)sc2c([N+](=O)[O-])cc(C(F)(F)F)cc12	100
O=C(O)C[C@H](O)C(=O)O.O=c1cc(N2CCN(CC3CCCCC3)CC2)sc2c([N+](=O)[O-])cc(C(F)(F)F)cc12	98.3

----------
# PROTOCOL_SUMMARY: Elimination half life in Balb/c mouse at 50 mg/kg, po measured upto 24 hrs by LC/MS/MS analysis
# Type: ADME, organism-based
# CONDITION_LABEL: in vivo, read-out: beta t1/2 (converted)
Collected half-life values appear next to each entry.
ENDPOINT: half-life

MOL	RESULT
O=c1cc(N2CCN(CC3CCCCC3)CC2)sc2c([N+](=O)[O-])cc(C(F)(F)F)cc12	435 min
O=C(O)/C=C/C(=O)O.O=C(O)/C=C/C(=O)O.O=C(O)/C=C/C(=O)O.O=c1cc(N2CCN(CC3CCCCC3)CC2)sc2c([N+](=O)[O-])cc(C(F)(F)F)cc12.O=c1cc(N2CCN(CC3CCCCC3)CC2)sc2c([N+](=O)[O-])cc(C(F)(F)F)cc12	482 min
O=C(O)CC(O)(CC(=O)O)C(=O)O.O=c1cc(N2CCN(CC3CCCCC3)CC2)sc2c([N+](=O)[O-])cc(C(F)(F)F)cc12	371 min
O=C(O)C[C@H](O)C(=O)O.O=c1cc(N2CCN(CC3CCCCC3)CC2)sc2c([N+](=O)[O-])cc(C(F)(F)F)cc12	360 min
O=C(O)/C=C\C(=O)O.O=c1cc(N2CCN(CC3CCCCC3)CC2)sc2c([N+](=O)[O-])cc(C(F)(F)F)cc12	359 min
Cl.O=c1cc(N2CCN(CC3CCCCC3)CC2)sc2c([N+](=O)[O-])cc(C(F)(F)F)cc12	403 min

----------
# PROTOCOL_SUMMARY: Apparent permeability across basolateral to apical side in human Caco-2 cells incubated for 21 days
# Type: ADME, cell-based
# CONDITION_LABEL: time 21 day
The threshold is 0.3 ×10⁻⁶ cm/s. Values of Papp B→A beneath it are tagged label 1; values meeting or exceeding it are tagged label 0.

MOL	LABEL_CLASS
O=c1cc(N2CCN(CC3CCCCC3)CC2)sc2c([N+](=O)[O-])cc(C(F)(F)F)cc12	label 0
O=C(O)CC(O)(CC(=O)O)C(=O)O.O=c1cc(N2CCN(CC3CCCCC3)CC2)sc2c([N+](=O)[O-])cc(C(F)(F)F)cc12	label 0
O=C(O)/C=C\C(=O)O.O=c1cc(N2CCN(CC3CCCCC3)CC2)sc2c([N+](=O)[O-])cc(C(F)(F)F)cc12	label 1
O=C(O)/C=C/C(=O)O.O=C(O)/C=C/C(=O)O.O=C(O)/C=C/C(=O)O.O=c1cc(N2CCN(CC3CCCCC3)CC2)sc2c([N+](=O)[O-])cc(C(F)(F)F)cc12.O=c1cc(N2CCN(CC3CCCCC3)CC2)sc2c([N+](=O)[O-])cc(C(F)(F)F)cc12	label 1
O=C(O)CC(O)(CC(=O)O)C(=O)O.O=C(O)CC(O)(CC(=O)O)C(=O)O.O=C(O)CC(O)(CC(=O)O)C(=O)O.O=c1cc(N2CCN(CC3CCCCC3)CC2)sc2c([N+](=O)[O-])cc(C(F)(F)F)cc12.O=c1cc(N2CCN(CC3CCCCC3)CC2)sc2c([N+](=O)[O-])cc(C(F)(F)F)cc12	label 1
Cl.O=c1cc(N2CCN(CC3CCCCC3)CC2)sc2c([N+](=O)[O-])cc(C(F)(F)F)cc12	label 1
O=C(O)C[C@H](O)C(=O)O.O=c1cc(N2CCN(CC3CCCCC3)CC2)sc2c([N+](=O)[O-])cc(C(F)(F)F)cc12	label 1
